# Test system: IRAK4;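 also: KINOMEscan kinase panel screen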
# measurement parameters: concentration: 1 μM, replicates: in singlicate; n = 1
%Inh reference
readout label: %Inh

1. Cc1ccc(S(=O)(=O)Nc2ccc(Nc3nccc(Nc4cccc5[nH]ncc45)n3)cc2)cc1 43%
2. CSc1cccc2c(-c3ccncn3)c(-c3ccc(F)cc3)nn12 0%
3. c1ccc(Oc2ccc(Nc3ccnc4cc(-c5ccc(CNCCN6CCOCC6)o5)ccc34)cc2)nc1 0%
4. COc1cccc(C2=C(Nc3ccc(Cl)c(C(=O)O)c3)C(=O)NC2=O)c1 31%
5. COc1cc(Nc2nccc(-c3c(-c4cccc(NC(=O)c5c(F)cccc5F)c4)nn4ncccc34)n2)cc(OC)c1OC 0%
6. O=C(Nc1cccc(Oc2ccc3nc(NC(=O)C4CC4)cn3n2)c1)c1ccccc1C(F)(F)F 0%
7. COc1ccc(CNC(=O)NC2CCN(c3ccnc(Nc4ccc(F)cc4)n3)CC2)cc1 0%
8. Cc1occc1-c1ncc(OC[C@@H](N)Cc2c[nH]c3ccccc23)cc1-c1ccc2[nH]nc(C)c2c1.O=C(O)C(F)(F)F 0%
